# ASSAY REMARKS: Half life in male Sprague-Dawley rat at 10 mg/kg, sc measured upto 24 hrs by LC-MS/MS analysis
# Format: ADME, organism-based
# CONDITION INFO: in vivo
MEASURE: half-life (h)
Express the result in h but write the number alone.

In plain terms, CN(C(=O)[C@H](Cc1cc(F)cc(F)c1)NC(=O)Cc1c[nH]c2ccc(O)cc12)c1ccc2scnc2c1 has a documented half-life of 3.66

---

Item-by-item account of selectivity ratio
# ASSAY REMARKS: Selectivity index, ratio of CC50 for human MT4 cells to EC50 for wild type HIV-1 IIIB infected in human MT4 cells
# Format: toxicity, cell-based
# CONDITION INFO: read-out: Selectivity Index
Lab note: jot the number down without any unit.

- CN(C(=O)[C@H](Cc1cc(F)cc(F)c1)NC(=O)Cc1c[nH]c2cc(F)ccc12)c1ccc2scnc2c1: 1500
- CN(C(=O)[C@H](Cc1cc(F)cc(F)c1)NC(=O)Cc1c[nH]c2cccc(Br)c12)c1ccc2scnc2c1: 133
- Cc1cc(C(F)(F)F)nn1CC(=O)N[C@@H](Cc1cc(F)cc(F)c1)C(=O)N(C)c1ccc2scnc2c1: 543

Pending molecule:
In plain terms, Cc1ccc2[nH]cc(CC(=O)N[C@@H](Cc3cc(F)cc(F)c3)C(=O)N(C)c3ccc4scnc4c3)c2c1 has a documented selectivity ratio of 621
